METHOD DESCRIPTION: Biodistribution (γ-counter)
Type: in vivo, BALB/C nude mice
CONDITION: male, BALB/C nude, mouse, tumor and liver, iv, total radioactivity; 10 min p.i.; mean ± SD, n = 3; read-out: Tumor/Liver ratio
Procedure: Micro-PET imaging was conducted using an Inveon PET scanner (Siemens, Germany). Dynamic PET examine were acquired over the first 60 min following the simultaneous injection of 7.4 to 9.25 MBq (200 to 250 μCi) of [^68Ga]Ga-HN11-1 and [^68Ga]Ga-HN11-2. […] The samples were counted using the γ-counter for determining the %ID/g, presented as mean ± standard deviation (SD). […]
Peptide text beside a SMILES is read from it. * marks the point of attachment. NOTA = O=C(O)CN1CCN(CC(=O)O)CCN(CC(=O)*)CC1; AEEEA = NCCOCCOCCOCC(=O)O

COMPOUND	tissue to tissue ratio at 10 min
CC[C@H](C)[C@H](NC(=O)[C@H](CCCNC(=N)N)NC(=O)CNC(=O)[C@H](CCC(=O)O)NC(=O)[C@H](CC(N)=O)NC(=O)[C@H](Cc1ccc(O)cc1)NC(=O)[C@H](CCCNC(=N)N)NC(=O)[C@H](Cc1ccc(O)cc1)NC(=O)[C@H](Cc1c[nH]cn1)NC(=O)COCCOCCOCCNC(=O)CN1CCN(CC(=O)O)CCN(CC(=O)O)CC1)C(=O)N[C@@H](CCCNC(=N)N)C(=O)N[C@@H](CC(N)=O)C(=O)O [[^68Ga]Ga-HN11-1, metal not drawn] ({NOTA-AEEEA}-HYRYNEGRIRN-OH)	0.56

* * *

METHOD DESCRIPTION: Biodistribution (γ-counter)
Type: in vivo, BALB/C nude mice
CONDITION: male, BALB/C nude, mouse, tumor and lung, iv, total radioactivity; 60 min p.i.; mean ± SD, n = 3; read-out: Tumor/Lung ratio
Peptide text beside a SMILES is read from it. * marks the point of attachment. NOTA = O=C(O)CN1CCN(CC(=O)O)CCN(CC(=O)*)CC1; AEEEA = NCCOCCOCCOCC(=O)O

MOLECULE	tissue to tissue ratio at 1 h
CC[C@H](C)[C@H](NC(=O)[C@H](CCCNC(=N)N)NC(=O)CNC(=O)[C@H](CCC(=O)O)NC(=O)[C@H](CC(N)=O)NC(=O)[C@H](Cc1ccc(O)cc1)NC(=O)[C@H](CCCNC(=N)N)NC(=O)[C@H](Cc1ccc(O)cc1)NC(=O)[C@H](Cc1c[nH]cn1)NC(=O)COCCOCCOCCNC(=O)CN1CCN(CC(=O)O)CCN(CC(=O)O)CC1)C(=O)N[C@@H](CCCNC(=N)N)C(=O)N[C@@H](CC(N)=O)C(=O)O [[^68Ga]Ga-HN11-1, metal not drawn] ({NOTA-AEEEA}-HYRYNEGRIRN-OH)	3.01

* * *

Collected logD values appear next to each entry.
METHOD DESCRIPTION: Partition coefficient (log P), 1-octanol/PBS
Format: physicochemical
CONDITION: shake-flask 3 mL 1-octanol / 3 mL PBS pH 7.4, vortex 10 min, centrifugation 10,000 rpm 10 min, γ-counter, mean ± SD, n = 5
Experimental: The partition coefficients were assessed using the method described previously. [^68Ga]Ga-HN11-1 and [^68Ga]Ga-HN11-2 was respectively introduced into a mixture comprising 3 mL of 1-octanol and 3 mL of phosphate-buffered saline (PBS) with a pH of 7.4. Following vortexing for 10 minutes and subsequent centrifugation at 10,000 rpm for 10 minutes, samples were taken from both layers and counted using a γ-counter. The log P was determined using the formula: log P = log([M]oct/[M]aq). […]
Peptide text beside a SMILES is read from it. * marks the point of attachment. NOTA = O=C(O)CN1CCN(CC(=O)O)CCN(CC(=O)*)CC1; AEEEA = NCCOCCOCCOCC(=O)O

MOLECULE	logD
CC[C@H](C)[C@H](NC(=O)[C@H](CCCNC(=N)N)NC(=O)[C@H](C)NC(=O)[C@H](CCCCN)NC(=O)[C@@H](NC(=O)[C@H](CCCNC(=N)N)NC(=O)[C@H](CCCNC(=N)N)NC(=O)[C@@H](NC(=O)[C@H](Cc1c[nH]cn1)NC(=O)COCCOCCOCCNC(=O)CN1CCN(CC(=O)O)CCN(CC(=O)O)CC1)C(C)C)[C@@H](C)O)C(=O)N[C@@H](CCCNC(=N)N)C(=O)N[C@@H](CC(N)=O)C(=O)O [[^68Ga]Ga-HN11-2, metal not drawn] ({NOTA-AEEEA}-HVRRTKARIRN-OH)	-0.27
CC[C@H](C)[C@H](NC(=O)[C@H](CCCNC(=N)N)NC(=O)CNC(=O)[C@H](CCC(=O)O)NC(=O)[C@H](CC(N)=O)NC(=O)[C@H](Cc1ccc(O)cc1)NC(=O)[C@H](CCCNC(=N)N)NC(=O)[C@H](Cc1ccc(O)cc1)NC(=O)[C@H](Cc1c[nH]cn1)NC(=O)COCCOCCOCCNC(=O)CN1CCN(CC(=O)O)CCN(CC(=O)O)CC1)C(=O)N[C@@H](CCCNC(=N)N)C(=O)N[C@@H](CC(N)=O)C(=O)O [[^68Ga]Ga-HN11-1, metal not drawn] ({NOTA-AEEEA}-HYRYNEGRIRN-OH)	-0.3

* * *

METHOD DESCRIPTION: Biodistribution (γ-counter)
Type: in vivo, BALB/C nude mice
CONDITION: male, BALB/C nude, mouse, tumor and muscle, iv, total radioactivity; 30 min p.i.; mean ± SD, n = 3; read-out: Tumor/Muscle ratio
Peptide text beside a SMILES is read from it. * marks the point of attachment. NOTA = O=C(O)CN1CCN(CC(=O)O)CCN(CC(=O)*)CC1; AEEEA = NCCOCCOCCOCC(=O)O
REPORTED METRIC: tissue to tissue ratio at 0.5 h

COMPOUND	EXPERIMENTAL VALUE
CC[C@H](C)[C@H](NC(=O)[C@H](CCCNC(=N)N)NC(=O)CNC(=O)[C@H](CCC(=O)O)NC(=O)[C@H](CC(N)=O)NC(=O)[C@H](Cc1ccc(O)cc1)NC(=O)[C@H](CCCNC(=N)N)NC(=O)[C@H](Cc1ccc(O)cc1)NC(=O)[C@H](Cc1c[nH]cn1)NC(=O)COCCOCCOCCNC(=O)CN1CCN(CC(=O)O)CCN(CC(=O)O)CC1)C(=O)N[C@@H](CCCNC(=N)N)C(=O)N[C@@H](CC(N)=O)C(=O)O [[^68Ga]Ga-HN11-1, metal not drawn] ({NOTA-AEEEA}-HYRYNEGRIRN-OH)	5.11

* * *

METHOD DESCRIPTION: Biodistribution (γ-counter)
Format: in vivo, BALB/C nude mice
CONDITION: male, BALB/C nude, mouse, kidney, iv, total radioactivity, 10 min p.i.; mean ± SD, n = 3; read-out: Kidney uptake
Peptide text beside a SMILES is read from it. * marks the point of attachment. NOTA = O=C(O)CN1CCN(CC(=O)O)CCN(CC(=O)*)CC1; AEEEA = NCCOCCOCCOCC(=O)O

MOLECULE	tissue uptake at 10 min [%ID/g]
CC[C@H](C)[C@H](NC(=O)[C@H](CCCNC(=N)N)NC(=O)CNC(=O)[C@H](CCC(=O)O)NC(=O)[C@H](CC(N)=O)NC(=O)[C@H](Cc1ccc(O)cc1)NC(=O)[C@H](CCCNC(=N)N)NC(=O)[C@H](Cc1ccc(O)cc1)NC(=O)[C@H](Cc1c[nH]cn1)NC(=O)COCCOCCOCCNC(=O)CN1CCN(CC(=O)O)CCN(CC(=O)O)CC1)C(=O)N[C@@H](CCCNC(=N)N)C(=O)N[C@@H](CC(N)=O)C(=O)O [[^68Ga]Ga-HN11-1, metal not drawn] ({NOTA-AEEEA}-HYRYNEGRIRN-OH)	55.6

* * *

METHOD DESCRIPTION: Biodistribution (γ-counter)
Assay type: in vivo, BALB/C nude mice
CONDITION: male, BALB/C nude, mouse, brain, iv, total radioactivity, 30 min p.i.; mean ± SD, n = 3; read-out: Brain uptake
Peptide text beside a SMILES is read from it. * marks the point of attachment. NOTA = O=C(O)CN1CCN(CC(=O)O)CCN(CC(=O)*)CC1; AEEEA = NCCOCCOCCOCC(=O)O
REPORTED METRIC: tissue uptake at 0.5 h (%ID/g)

MOLECULE	REPORTED METRIC	EXPERIMENTAL VALUE
CC[C@H](C)[C@H](NC(=O)[C@H](CCCNC(=N)N)NC(=O)CNC(=O)[C@H](CCC(=O)O)NC(=O)[C@H](CC(N)=O)NC(=O)[C@H](Cc1ccc(O)cc1)NC(=O)[C@H](CCCNC(=N)N)NC(=O)[C@H](Cc1ccc(O)cc1)NC(=O)[C@H](Cc1c[nH]cn1)NC(=O)COCCOCCOCCNC(=O)CN1CCN(CC(=O)O)CCN(CC(=O)O)CC1)C(=O)N[C@@H](CCCNC(=N)N)C(=O)N[C@@H](CC(N)=O)C(=O)O [[^68Ga]Ga-HN11-1, metal not drawn] ({NOTA-AEEEA}-HYRYNEGRIRN-OH)	tissue uptake at 0.5 h	0.12
